# System: Staphylococcus aureus
# method_summary: Antimicrobial activity against methicillin-resistant Staphylococcus aureus N315 after 24 hrs by two-fold serial dilution method
# Type: functional
# settings: N315, 24 h
// MIC lookup, one value per entry

Recorded results for 5 compounds are shown here.
# smiles_representation, MIC
data = [
    ("Cl.Cl.O=C1c2cccc3c(Br)ccc(c23)C(=O)N1N(Cc1cn(Cc2ccc(F)cc2F)nn1)Cc1cn(Cc2ccc(F)cc2F)nn1", "> 512 µg/mL"),
    ("Cl.Cl.Cl.Cl.O=C1c2cccc3c(Br)ccc(c23)C(=O)N1N(Cc1cn(Cc2ccc(Cl)cc2)nn1)Cc1cn(Cc2ccc(Cl)cc2)nn1", "512 µg/mL"),
    ("O=C1c2cccc3c(Br)ccc(c23)C(=O)N1N(Cc1cn(Cc2cccc(Cl)c2)nn1)Cc1cn(Cc2cccc(Cl)c2)nn1", "> 512 µg/mL"),
    ("CCCCn1cc(CN(Cc2cn(CCCC)nn2)N2C(=O)c3cccc4c(Br)ccc(c34)C2=O)nn1", "> 512 µg/mL"),
    ("CCCCCCCCn1cc(CN(Cc2cn(CCCCCCCC)nn2)N2C(=O)c3cccc4c(Br)ccc(c34)C2=O)nn1.Cl.Cl", "> 512 µg/mL"),
]

Q: # return recorded MIC for input "CCn1cc(C(=O)O)c(=O)c2cc(F)c(N3CCNCC3)cc21"
A: 1 µg/mL

Q: Note MIC for the compound shown: "CCCCCCn1cc(CN(Cc2cn(CCCCCC)nn2)N2C(=O)c3cccc4c(Br)ccc(c34)C2=O)nn1.Cl.Cl"
A: > 512 µg/mL

Q: Read the entry "O=C1c2cccc3c(Br)ccc(c23)C(=O)N1N(Cc1cn(Cc2ccc(Cl)c(Cl)c2)nn1)Cc1cn(Cc2ccc(Cl)c(Cl)c2)nn1" and write its reported MIC.
A: > 512 µg/mL

Q: Supply MIC value. Item: "Cl.Cl.Cl.Cl.Cl.Cl.O=C1c2cccc3c(Br)ccc(c23)C(=O)N1N(Cc1cn(Cc2ccc(Cl)cc2Cl)nn1)Cc1cn(Cc2ccc(Cl)cc2Cl)nn1"
A: > 512 µg/mL

Q: Indicate its recorded MIC; the compound in question is "CCCCn1cc(CN(Cc2cn(CCCC)nn2)N2C(=O)c3cccc4c(Br)ccc(c34)C2=O)nn1.Cl.Cl"
A: > 512 µg/mL

* * *

# Test system: Bacillus subtilis
# method_summary: Antimicrobial activity against Bacillus subtilis after 24 hrs by two-fold serial dilution method
# Format: functional
Listed below: MIC values for each entry.
Reply numerically in µg/mL, unit not repeated.

Q: # return recorded MIC for entry "Cl.Cl.Cl.Cl.O=C1c2cccc3c(Br)ccc(c23)C(=O)N1N(Cc1cn(Cc2ccc(Cl)cc2)nn1)Cc1cn(Cc2ccc(Cl)cc2)nn1"
A: 256

* * *

Parameter: MIC. Scope: all listed entries.
# Tested on: Bacillus subtilis
# method_summary: Antimicrobial activity against Bacillus subtilis after 24 hrs by two-fold serial dilution method
# Type: functional

# compound, MIC
records = [
    ("O=C1c2cccc3c(Br)ccc(c23)C(=O)N1N(Cc1cn(Cc2ccc(F)cc2)nn1)Cc1cn(Cc2ccc(F)cc2)nn1", "> 512 µg/mL"),
    ("CCCCCCn1cc(CN(Cc2cn(CCCCCC)nn2)N2C(=O)c3cccc4c(Br)ccc(c34)C2=O)nn1.Cl.Cl", "> 512 µg/mL"),
    ("CCCCCCCCn1cc(CN(Cc2cn(CCCCCCCC)nn2)N2C(=O)c3cccc4c(Br)ccc(c34)C2=O)nn1.Cl.Cl", "> 512 µg/mL"),
    ("O=C1c2cccc3c(Br)ccc(c23)C(=O)N1N(Cc1cn(Cc2ccc(Cl)cc2)nn1)Cc1cn(Cc2ccc(Cl)cc2)nn1", "256 µg/mL"),
    ("Cl.Cl.Cl.Cl.O=C1c2cccc3c(Br)ccc(c23)C(=O)N1N(Cc1cn(Cc2cccc(Cl)c2)nn1)Cc1cn(Cc2cccc(Cl)c2)nn1", "256 µg/mL"),
]

Q: Lab note: record MIC of "Cl.Cl.O=C1c2cccc3c(Br)ccc(c23)C(=O)N1N(Cc1cn(Cc2ccc(F)cc2F)nn1)Cc1cn(Cc2ccc(F)cc2F)nn1" tested on Bacillus subtilis.
A: 128 µg/mL

Q: # return MIC of "Cl.Cl.O=C1c2cccc3c(Br)ccc(c23)C(=O)N1N(Cc1cn(Cc2cccc(F)c2)nn1)Cc1cn(Cc2cccc(F)c2)nn1" (system: Bacillus subtilis)
A: > 512 µg/mL

Q: Answer briefly: MIC recorded on Bacillus subtilis for "O=C1c2cccc3c(Br)ccc(c23)C(=O)N1N(Cc1cn(Cc2ccc(Cl)c(Cl)c2)nn1)Cc1cn(Cc2ccc(Cl)c(Cl)c2)nn1"
A: > 512 µg/mL
